molecular target: F protein of wild type RSV A/Long (respiratory syncytial virus, strain …, UniProt P12568 26-574); assay: cell-based or functional assay
Sequence (P12568 26-574): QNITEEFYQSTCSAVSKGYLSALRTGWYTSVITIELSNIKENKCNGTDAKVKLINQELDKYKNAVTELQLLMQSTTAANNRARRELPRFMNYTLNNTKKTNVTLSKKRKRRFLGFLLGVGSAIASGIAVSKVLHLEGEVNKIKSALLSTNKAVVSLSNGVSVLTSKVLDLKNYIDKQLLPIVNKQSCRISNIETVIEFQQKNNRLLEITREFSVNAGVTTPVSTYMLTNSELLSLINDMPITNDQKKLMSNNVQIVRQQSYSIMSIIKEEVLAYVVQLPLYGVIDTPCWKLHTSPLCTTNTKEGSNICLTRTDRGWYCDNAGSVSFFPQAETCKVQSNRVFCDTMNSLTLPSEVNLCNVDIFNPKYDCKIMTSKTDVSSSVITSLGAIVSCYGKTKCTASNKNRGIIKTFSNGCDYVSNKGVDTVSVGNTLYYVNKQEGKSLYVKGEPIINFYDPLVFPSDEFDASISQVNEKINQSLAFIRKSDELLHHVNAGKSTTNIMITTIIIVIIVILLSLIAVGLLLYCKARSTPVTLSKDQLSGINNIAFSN
Measure name: Mean IC50 (Curve), RSV microneutralization (µg/mL)

# Binder, Endpoint unit, Assay value
data = [
    ("P12f2 (monoclonal antibody) (antibody, V domains shown, also called Pf12; P1212) VH: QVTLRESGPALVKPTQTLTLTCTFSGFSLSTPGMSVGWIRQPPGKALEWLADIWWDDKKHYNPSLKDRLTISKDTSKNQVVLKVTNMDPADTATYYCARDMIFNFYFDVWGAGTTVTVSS VL: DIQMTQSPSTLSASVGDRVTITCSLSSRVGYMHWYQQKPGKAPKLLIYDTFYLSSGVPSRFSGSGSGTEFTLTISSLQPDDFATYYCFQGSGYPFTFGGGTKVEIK", "µg/mL", 0.0231),
    ("A4B4 (monoclonal antibody) (antibody, V domains shown, also called A4B4/A4B4 (HC/LC)) VH: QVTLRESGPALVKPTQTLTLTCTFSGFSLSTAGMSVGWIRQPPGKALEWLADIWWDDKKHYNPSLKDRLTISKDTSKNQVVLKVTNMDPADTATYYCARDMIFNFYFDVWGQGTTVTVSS VL: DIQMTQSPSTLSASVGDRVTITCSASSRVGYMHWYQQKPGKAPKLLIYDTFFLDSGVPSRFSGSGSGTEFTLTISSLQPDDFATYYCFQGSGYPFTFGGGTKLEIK", "µg/mL", 0.0171),
]

Origin of measurements: patent US20020177126A1
